assay: in vitro; assay type: in vitro ADME, human; conditions: human liver microsomes 0.5 mg/mL, with NADPH, compound 0.5 μM; read-out: Human Liver Microsomal Stability CLint (uL/min/mg liver) (converted)
Outcome label depends on microsomal CLint relative to 100 µL/min/mg: at/above gives Condition met, below gives Condition not met.

Here's what some known entries look like.
molecular.string | discrete.label
COCCN(C)CC(=O)O[C@]1(C)CC[C@@]2(C)[C@@H](CC[C@@H]3[C@@H]2CC[C@]2(C)[C@@H](C(C)=O)CC[C@@H]32)C1 | Condition met
CC(=O)[C@H]1CC[C@H]2[C@@H]3CC[C@H]4C[C@](C)(OC(=O)COC(=O)OCCN(C)C)CC[C@]4(C)[C@H]3CC[C@]12C | Condition met
CC(=O)[C@H]1CC[C@H]2[C@@H]3CC[C@H]4C[C@](C)(OC(=O)COC(=O)CN(C)C)CC[C@]4(C)[C@H]3CC[C@]12C | Condition met
CC(=O)[C@H]1CC[C@H]2[C@@H]3CC[C@H]4C[C@](C)(OC(=O)CC[C@H](N)C(=O)O)CC[C@]4(C)[C@H]3CC[C@]12C | Condition not met
CC(=O)[C@H]1CC[C@H]2[C@@H]3CC[C@H]4C[C@](C)(OC(=O)CNCC(C)(C)N)CC[C@]4(C)[C@H]3CC[C@]12C | Condition not met

Q) Check if microsomal CLint >= 100 µL/min/mg (inclusive). Item: `CC(=O)[C@H]1CC[C@H]2[C@@H]3CC[C@H]4C[C@](C)(OC(=O)COC(=O)CO)CC[C@]4(C)[C@H]3CC[C@]12C`
A) Condition met

* * *

assay: in vitro; format: in vitro ADME, human; conditions: human liver microsomes, no NADPH, 1 h, compound 0.5 μM
Decision: Human Liver Microsomal Stability no NADPH, % remain 1 h beneath 40% gives Y; Human Liver Microsomal Stability no NADPH, % remain 1 h meeting or exceeding 40% gives N.

Here's what some known entries look like.
molecular.string | discrete.label
COCCOCC(=O)OCC(=O)O[C@]1(C)CC[C@@]2(C)[C@@H](CC[C@@H]3[C@@H]2CC[C@]2(C)[C@@H](C(C)=O)CC[C@@H]32)C1 | Y
COC(=O)[C@@H](NCC(=O)O[C@]1(C)CC[C@@]2(C)[C@@H](CC[C@@H]3[C@@H]2CC[C@]2(C)[C@@H](C(C)=O)CC[C@@H]32)C1)C(C)C | N
CC(=O)[C@H]1CC[C@H]2[C@@H]3CC[C@H]4C[C@](C)(OC(=O)CC(C)(C)C(=O)O)CC[C@]4(C)[C@H]3CC[C@]12C | N

Q) Just wondering, is Human Liver Microsomal Stability no NADPH, % remain 1 h of `CC(=O)[C@H]1CC[C@H]2[C@@H]3CC[C@H]4C[C@](C)(OC(=O)COC(=O)C(C)(C)OC(=O)CN(C)CCO)CC[C@]4(C)[C@H]3CC[C@]12C` below 40%?
A) Y

Q) Just wondering, is Human Liver Microsomal Stability no NADPH, % remain 1 h of `CC(=O)[C@H]1CC[C@H]2[C@@H]3CC[C@H]4C[C@](C)(OC(=O)COC(=O)CN5CCN(C)CC5)CC[C@]4(C)[C@H]3CC[C@]12C` below 40%?
A) N

Q) Just wondering, is Human Liver Microsomal Stability no NADPH, % remain 1 h of `COCCN(CCO)CC(=O)OC(C)(C)C(=O)OCC(=O)O[C@]1(C)CC[C@@]2(C)[C@@H](CC[C@@H]3[C@@H]2CC[C@]2(C)[C@@H](C(C)=O)CC[C@@H]32)C1` below 40%?
A) Y

Q) Just wondering, is Human Liver Microsomal Stability no NADPH, % remain 1 h of `CC(=O)[C@H]1CC[C@H]2[C@@H]3CC[C@H]4C[C@](C)(OCOC(=O)CN5CCOCC5)CC[C@]4(C)[C@H]3CC[C@]12C` below 40%?
A) Y

Q) Just wondering, is Human Liver Microsomal Stability no NADPH, % remain 1 h of `CC(=O)[C@H]1CC[C@H]2[C@@H]3CC[C@H]4C[C@](C)(OC(=O)CC(C)(C)C(=O)OCCN(C)C)CC[C@]4(C)[C@H]3CC[C@]12C` below 40%?
A) N

Q) Just wondering, is Human Liver Microsomal Stability no NADPH, % remain 1 h of `CC(=O)[C@H]1CC[C@H]2[C@@H]3CC[C@H]4C[C@](C)(OC(=O)CN(C)C(=O)CN5CCOCC5)CC[C@]4(C)[C@H]3CC[C@]12C` below 40%?
A) N

Q) Just wondering, is Human Liver Microsomal Stability no NADPH, % remain 1 h of `COC(=O)C(C)(C)NCC(=O)O[C@]1(C)CC[C@@]2(C)[C@@H](CC[C@@H]3[C@@H]2CC[C@]2(C)[C@@H](C(C)=O)CC[C@@H]32)C1` below 40%?
A) Y
